# measured_on: Phospho-N-acetylmuramoyl-pentapeptide-transferase (Escherichia coli K-12, UniProt P0A6W3)
# Sequence (P0A6W3 whole entry): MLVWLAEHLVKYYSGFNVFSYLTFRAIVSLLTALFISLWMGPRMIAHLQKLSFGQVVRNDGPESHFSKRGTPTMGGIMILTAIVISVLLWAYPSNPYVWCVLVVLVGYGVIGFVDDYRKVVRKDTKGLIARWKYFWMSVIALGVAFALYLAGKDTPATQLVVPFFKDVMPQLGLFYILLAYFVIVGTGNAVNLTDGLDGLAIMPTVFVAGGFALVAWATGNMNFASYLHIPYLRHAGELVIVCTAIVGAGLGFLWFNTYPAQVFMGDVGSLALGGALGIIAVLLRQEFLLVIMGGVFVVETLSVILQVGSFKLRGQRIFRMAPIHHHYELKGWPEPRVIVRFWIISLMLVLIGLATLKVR
# assay: Inhibition of Escherichia coli Translocase (mraY)
readout_kind: pIC50
Hey, just a heads up that pIC50 is the negative log base 10 of the concentration in molar.

Reference set (3 entries):
compound="CNC[C@H]1O[C@@H](OC[C@H]2O[C@@H](n3ccc(=O)[nH]c3=O)[C@H](O)C2O)[C@H](O)C1O (single isomer, unassigned)" readout_kind=pIC50 value_measured=4.35
compound="N=CNC[C@H]1O[C@@H](OC[C@H]2O[C@@H](n3ccc(=O)[nH]c3=O)[C@H](O)C2O)[C@H](O)C1O (single isomer, unassigned)" readout_kind=pIC50 value_measured=4.52
compound="NC[C@H]1O[C@@H](OC(CO)[C@H]2O[C@@H](n3ccc(=O)[nH]c3=O)[C@H](O)[C@@H]2O)[C@H](O)[C@@H]1O (stereo partly specified)" readout_kind=pIC50 value_measured=5.30

Continue with the next compound.
Incoming: I'm curious: which pIC50 was measured for CCCNC[C@H]1O[C@@H](OC[C@H]2O[C@@H](n3ccc(=O)[nH]c3=O)[C@H](O)C2O)[C@H](O)C1O (single isomer, unassigned) tested on Phospho-N-acetylmuramoyl-pentapeptide-transferase (Escherichia coli K-12, UniProt P0A6W3)?
Outgoing: 3.85

The measurements presented in this section are drawn from ChEMBL document CHEMBL1134708.
